# TEST SYSTEM: T1, CRF2R
# T1 sequence (Q13324 whole entry, species assumed, looked up): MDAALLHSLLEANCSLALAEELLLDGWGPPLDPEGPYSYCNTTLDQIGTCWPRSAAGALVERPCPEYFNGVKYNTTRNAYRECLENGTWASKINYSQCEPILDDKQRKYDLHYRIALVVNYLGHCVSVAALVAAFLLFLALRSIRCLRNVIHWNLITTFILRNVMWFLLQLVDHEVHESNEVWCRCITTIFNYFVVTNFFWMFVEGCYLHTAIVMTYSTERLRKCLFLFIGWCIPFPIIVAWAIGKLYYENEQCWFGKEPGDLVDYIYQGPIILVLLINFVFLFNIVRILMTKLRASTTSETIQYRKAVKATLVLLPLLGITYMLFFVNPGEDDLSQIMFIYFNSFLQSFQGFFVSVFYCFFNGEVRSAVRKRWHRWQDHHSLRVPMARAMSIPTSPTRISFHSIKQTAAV
# ASSAY NOTES: cell-based or functional assay
Ends that are not written are not given here.
QUANTITY NAME: CRF2R Emax (%)
Give the number; % is assumed, so skip it.

As a guide, the following entries are already answered.
BINDER: ZGPPISIDLPAQLLRKMIEIEKQEKEKQQAANNRLLLDTI (C-terminal amide) [SEQ ID NO 211]
UNIT STRING: %
CRF2R Emax: 100

BINDER: ZGPPISIDLPILLLRKMIEIEKQEKEKQQAANNRLLLDTI (C-terminal amide) [SEQ ID NO 35]
UNIT STRING: %
CRF2R Emax: 88

BINDER: ZGPPISIDLPFHLLRKMIEIEKQEKEKQQATTNARILARV (C-terminal amide) [SEQ ID NO 146]
UNIT STRING: %
CRF2R Emax: 84.5

BINDER: ZGPPISIDLPFQLLRKMIEIEKQEKEKQQATNNRLLLDTI (C-terminal amide) [SEQ ID NO 14]
UNIT STRING: %
CRF2R Emax: 90

BINDER: ZGPPISIDLPTYLLRKMIEIEKQEKEKQQATTNARILARV (C-terminal amide) [SEQ ID NO 151]
UNIT STRING: %
CRF2R Emax: 96

INPUT: Returns the measured CRF2R Emax for the input binder. Input: DNPSLSIDLPTYLLRTLLELARTQSQRERAEQNAIIFASV-NH2 [SEQ ID NO 173]
OUTPUT: 65.2
